# glycan array binding signal (z-score) values compiled below
- system.under.test: GlcNAc(b1-4)[GlcNAc(b1-6)]GalNAc
- method.summary: glycan array binding signal (z-score within array); higher = stronger binding
- condition: glycan notation: IUPAC condensed, linker removed
About 410 targets per protein were measured; listed, in parts, are those with the strongest signals and a random draw of the rest.
Just the number, please, no unit after it.

Clone646PsrP (Streptococcus pneumoniae) (protein) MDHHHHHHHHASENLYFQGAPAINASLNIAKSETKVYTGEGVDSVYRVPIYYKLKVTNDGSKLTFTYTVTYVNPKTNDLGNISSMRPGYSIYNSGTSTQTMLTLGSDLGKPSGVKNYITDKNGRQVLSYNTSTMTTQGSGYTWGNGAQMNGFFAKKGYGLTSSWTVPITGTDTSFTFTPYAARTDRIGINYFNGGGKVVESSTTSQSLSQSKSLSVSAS :: -0.205
AFL6 (Aspergillus fumigatus), Q4WKJ1 (protein) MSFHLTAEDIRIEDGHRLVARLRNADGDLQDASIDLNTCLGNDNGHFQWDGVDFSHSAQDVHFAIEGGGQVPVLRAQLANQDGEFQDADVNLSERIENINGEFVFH :: -0.154

Now turn to the next binder.
Data point: Epf (Streptococcus pyogenes) (protein) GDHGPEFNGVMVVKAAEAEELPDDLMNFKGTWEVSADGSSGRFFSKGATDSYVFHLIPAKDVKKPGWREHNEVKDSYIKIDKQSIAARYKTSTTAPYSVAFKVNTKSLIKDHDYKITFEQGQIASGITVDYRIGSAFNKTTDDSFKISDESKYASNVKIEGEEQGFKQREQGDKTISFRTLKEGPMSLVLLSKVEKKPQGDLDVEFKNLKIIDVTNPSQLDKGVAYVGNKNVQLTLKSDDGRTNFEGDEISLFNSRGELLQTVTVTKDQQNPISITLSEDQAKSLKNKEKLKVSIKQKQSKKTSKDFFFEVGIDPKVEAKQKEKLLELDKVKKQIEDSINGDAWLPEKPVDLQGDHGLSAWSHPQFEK ; glycan array binding signal (z-score) = 3.11
